target: X-box-binding protein 1 (Homo sapiens); test: XBP1 reporter suppression in cells – counter-screen, dose response (AID 504313); details: XBP1 reporter cell assay, percent of control;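 further: CHO cells carrying an XBP1 reporter stimulated with tunicamycin; potency is for inhibition of the tunicamycin-induced reporter signal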
Activity calls are given as the source filed them. How the calls were made is not given here.
Parameter call: string, one of active, inactive

CCOC(=O)c1cnc(-n2nc(C)cc2C)nc1Nc1ccc(O)cc1 | active
COc1cc(C(=O)O/N=C2\C=CC(=O)C(C)=C2)cc(OC)c1OC | inactive
NC(=O)CC(NC(=O)Cc1cccc2ccccc12)c1ccc(NCCOc2ccccc2)c([N+](=O)[O-])c1 (stereo not given) | inactive
COc1ccc(/C=C/C(=O)NC(=S)NNC(=O)c2cccnc2)cc1 | inactive
O=C1c2ccccc2-c2onc3ccc(Oc4ccccc4)c1c23 | inactive

Just curious, what result did Cc1ccc2nc(NC(=O)CSCC(=O)OCC(=O)c3ccc(Br)cc3)sc2c1 get here? active

Just curious, what result did Cc1ccc2[nH]c(O)c(N=NC(=O)CCc3ccccc3)c2c1Br get here? inactive

Just curious, what result did Cc1nc(NC(=O)CSc2nc3cccnc3n2Cc2ccccc2)sc1C get here? inactive

Just curious, what result did CCOc1ccc(-c2cc(CCCC(=O)NCc3ccc(C)cc3)no2)cc1 get here? active

Just curious, what result did Cc1cccc(Nc2nc(N)c([N+](=O)[O-])c(N3CC(C)CC(C)C3)n2)c1 (stereo not given) get here? inactive
